Would you mind telling me the reported apparent Kd (screen) of each entry?
# target or system: T1, TNFR1 (Homo sapiens, UniProt P19438)
# T1 chain: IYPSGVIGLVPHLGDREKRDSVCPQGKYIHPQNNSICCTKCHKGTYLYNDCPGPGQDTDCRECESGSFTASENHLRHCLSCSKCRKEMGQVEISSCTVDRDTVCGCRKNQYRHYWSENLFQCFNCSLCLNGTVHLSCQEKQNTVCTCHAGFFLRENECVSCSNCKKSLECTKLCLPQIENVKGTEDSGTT
# test method notes: yeast display SC50

# example entries with known answers
- binder: "I21Q (designed binder) SMEEEVEKAAKEYEKKKKEAQEKHLEKLKAKDKEAAERFLKELEEAAKEYAKDEAKTMSEEEAKRRAKKYKEKVLLSELSEEEQKEIKEAEEKLVRTILKYVEEAAK"
  apparent Kd (screen): "0.49 nM"
- binder: "K33Y (designed binder) SMEEEVEKAAKEYEKKKKEAIEKHLEKLKAKDYEAAERFLKELEEAAKEYAKDEAKTMSEEEAKRRAKKYKEKVLLSELSEEEQKEIKEAEEKLVRTILKYVEEAAK"
  apparent Kd (screen): "0.593 nM"

Below is a list of binders. For each, state its recorded apparent Kd (screen).
1. E49G (designed binder) SMEEEVEKAAKEYEKKKKEAIEKHLEKLKAKDKEAAERFLKELEEAAKGYAKDEAKTMSEEEAKRRAKKYKEKVLLSELSEEEQKEIKEAEEKLVRTILKYVEEAAK
2. E37N (designed binder) SMEEEVEKAAKEYEKKKKEAIEKHLEKLKAKDKEAANRFLKELEEAAKEYAKDEAKTMSEEEAKRRAKKYKEKVLLSELSEEEQKEIKEAEEKLVRTILKYVEEAAK
3. S80V (designed binder) SMEEEVEKAAKEYEKKKKEAIEKHLEKLKAKDKEAAERFLKELEEAAKEYAKDEAKTMSEEEAKRRAKKYKEKVLLSELVEEEQKEIKEAEEKLVRTILKYVEEAAK
4. L28G (designed binder) SMEEEVEKAAKEYEKKKKEAIEKHLEKGKAKDKEAAERFLKELEEAAKEYAKDEAKTMSEEEAKRRAKKYKEKVLLSELSEEEQKEIKEAEEKLVRTILKYVEEAAK

A.
1: 9.41 nM; 2: 0.446 nM; 3: 1.27 nM; 4: 1.4 nM

Below is a list of binders. For each, state its recorded apparent Kd (screen).
1. E37L (designed binder) SMEEEVEKAAKEYEKKKKEAIEKHLEKLKAKDKEAALRFLKELEEAAKEYAKDEAKTMSEEEAKRRAKKYKEKVLLSELSEEEQKEIKEAEEKLVRTILKYVEEAAK
2. E44H (designed binder) SMEEEVEKAAKEYEKKKKEAIEKHLEKLKAKDKEAAERFLKELHEAAKEYAKDEAKTMSEEEAKRRAKKYKEKVLLSELSEEEQKEIKEAEEKLVRTILKYVEEAAK

A.
0.869 nM
3 nM
